The values you see were collected from patent US20070264229A1.

- target: HLA-DR2 (DRA/DRB1*1501) (Homo sapiens, UniProt P01903+P01911)
- Construct: isolate soluble HLA-DR2 molecules which had been expressed in Drosophila S2 cells; made in house; host or cells: Drosophila S2 cells
- protocol-notes: Competitive binding assay for HLA-DR2: inhibition of biotinylated MBP 85-99 binding
- measurement-context: recombinant HLA-DR2, FIG. 1A and Table 1
measurement-type: inhibition of binding of biotinylated MBP 85-99 to HLA-DR2 (in words)

sequence-content | result
APEKAKFEAYKAAAAPA (The peptide was designed and synthesized.) [J9] | most effective
APEAKKVEAFKAAAAPA (The peptide was designed and synthesized.) [J17] | most effective
